Tested on: STAPHYLOCOCCUS AUREUS A5177
Test: In vitro antibacterial activity, MIC, BHI agar dilution
Assay type: cell-based
Conditions: S. aureus A5177, unit assumed
So I've got a bunch of compounds here, and I need their MIC values.
Kindly provide the numeric value in µg/mL only, without the unit symbol.

Check the records and state MIC for CC[C@H]1OC(=O)[C@H](C)C(=O)[C@H](C)[C@@H](O[C@@H]2O[C@H](C)C[C@H](N(C)C)[C@H]2O)[C@](C)(OC)C[C@@H](C)C2=N[C@H](CN(C)Cc3ccccc3)CN3C(=O)O[C@@]1(C)[C@H]3[C@H]2C
0.78

Dear colleague, please send me the reported MIC for CC[C@H]1OC(=O)[C@H](C)C(=O)[C@H](C)[C@@H](O[C@@H]2O[C@H](C)C[C@H](N(C)C)[C@H]2O)[C@](C)(OC)C[C@@H](C)C2=NC3CN(CCc4ccc(NC(C)=O)cc4)CC3N3C(=O)O[C@@]1(C)[C@H]3[C@H]2C (stereo partly shown) when you can.
0.39

State, in one line, measured MIC of CC[C@H]1OC(=O)[C@H](C)C(=O)[C@H](C)[C@@H](O[C@@H]2O[C@H](C)C[C@H](N(C)C)[C@H]2O)[C@](C)(OC)C[C@@H](C)C2=NC3CCCCC3N3C(=O)O[C@@]1(C)[C@H]3[C@H]2C (stereo partly shown)
0.2

Answer with the recorded MIC for the compound listed here: CC[C@H]1OC(=O)[C@H](C)C(=O)[C@H](C)[C@@H](O[C@@H]2O[C@H](C)C[C@H](N(C)C)[C@H]2O)[C@](C)(OC)C[C@@H](C)C2=NC[C@H](COCc3ccc(OC)cc3)N3C(=O)O[C@@]1(C)[C@H]3[C@H]2C
0.2

Assign MIC to the following record: C=CCN1CC2N=C3[C@H](C)C[C@@](C)(OC)[C@H](O[C@@H]4O[C@H](C)C[C@H](N(C)C)[C@H]4O)[C@@H](C)C(=O)[C@@H](C)C(=O)O[C@H](CC)[C@@]4(C)OC(=O)N(C2C1)[C@@H]4[C@H]3C (stereo partly shown)
0.78

State its MIC for this compound: CC[C@H]1OC(=O)[C@H](C)C(=O)[C@H](C)[C@@H](O[C@@H]2O[C@H](C)C[C@H](N(C)C)[C@H]2O)[C@](C)(OC)C[C@@H](C)C2=N[C@@H]3CCC[C@@H]3N3C(=O)O[C@@]1(C)[C@H]3[C@H]2C
0.78

Answer with the recorded MIC for the compound listed here: CCC1OC(=O)C(C)C(=O)C(C)C(OC2OC(C)CC(N(C)C)C2O)C(C)(OC)CC(C)C2=NCC(C)(CN(C)Cc3ccccc3)N3C(=O)OC1(C)C3C2C (stereo not shown)
0.78

Look up and state reported MIC for CC[C@H]1OC(=O)[C@H](C)C(=O)[C@H](C)[C@@H](O[C@@H]2O[C@H](C)C[C@H](N(C)C)[C@H]2O)[C@](C)(OC)C[C@@H](C)C2=N[C@H](COCc3ccncc3)CN3C(=O)O[C@@]1(C)[C@H]3[C@H]2C
0.2

Give a short answer stating reported MIC for CC[C@H]1OC(=O)[C@H](C)C(=O)[C@H](C)[C@@H](O[C@@H]2O[C@H](C)C[C@H](N(C)C)[C@H]2O)[C@](C)(OC)C[C@@H](C)C2=N[C@@H]3CN(C(=O)OCc4ccccc4)C[C@@H]3N3C(=O)O[C@@]1(C)[C@H]3[C@H]2C .
0.78

Supply measured MIC of CC[C@H]1OC(=O)[C@H](C)C(=O)[C@H](C)[C@@H](O[C@@H]2O[C@H](C)C[C@H](N(C)C)[C@H]2O)[C@](C)(OC)C[C@@H](C)C2=N[C@@H]3CN(Cc4ccccc4)C[C@@H]3N3C(=O)O[C@@]1(C)[C@H]3[C@H]2C in your reply.
0.78

Entry CC[C@H]1OC(=O)[C@H](C)C(=O)[C@H](C)[C@@H](O[C@@H]2O[C@H](C)C[C@H](N(C)C)[C@H]2O)[C@](C)(OC)C[C@@H](C)C2=N[C@@H]3CCCC[C@@H]3N3C(=O)O[C@@]1(C)[C@H]3[C@H]2C needs its MIC filled in; supply it.
0.78

Given CC[C@H]1OC(=O)[C@H](C)C(=O)[C@H](C)[C@@H](O[C@@H]2O[C@H](C)C[C@H](N(C)C)[C@H]2O)[C@](C)(OC)C[C@@H](C)C2=NCC(COC(=O)c3ccc(Cl)cc3)N3C(=O)O[C@@]1(C)[C@H]3[C@H]2C (stereo partly shown) , respond with its MIC.
0.1

Give the measured MIC for CC[C@H]1OC(=O)[C@H](C)C(=O)[C@H](C)[C@@H](O[C@@H]2O[C@H](C)C[C@H](N(C)C)[C@H]2O)[C@](C)(OC)C[C@@H](C)C2=NC[C@H](COCc3ccc(F)cc3)N3C(=O)O[C@@]1(C)[C@H]3[C@H]2C
0.1

Please indicate MIC recorded for CC[C@H]1OC(=O)[C@H](C)C(=O)[C@H](C)[C@@H](O[C@@H]2O[C@H](C)C[C@H](N(C)C)[C@H]2O)[C@](C)(OC)C[C@@H](C)C2=N[C@@H]3CN(Cc4ccc(Cl)cc4)C[C@@H]3N3C(=O)O[C@@]1(C)[C@H]3[C@H]2C
0.78

Please indicate MIC recorded for CC[C@H]1OC(=O)[C@H](C)C(=O)[C@H](C)[C@@H](O[C@@H]2O[C@H](C)C[C@H](N(C)C)[C@H]2O)[C@](C)(OC)C[C@@H](C)C2=NC3CNCC3N3C(=O)O[C@@]1(C)[C@H]3[C@H]2C (stereo partly shown)
0.39

Please look at this compound and report its MIC: CC[C@H]1OC(=O)[C@H](C)C(=O)[C@H](C)[C@@H](O[C@@H]2O[C@H](C)C[C@H](N(C)C)[C@H]2O)[C@](C)(OC)C[C@@H](C)C2=NC[C@H](C)N3C(=O)O[C@@]1(C)[C@H]3[C@H]2C
0.78

* * *

Tested on: STAPHYLOCOCCUS AUREUS A5177
Experiment: In vitro antibacterial activity, MIC, BHI agar dilution
Assay type: cell-based
Details: S. aureus A5177, unit assumed
Exercise: for every item that follows, state its recorded MIC.
Write the value in µg/mL as a bare number.

Give MIC for this entry on STAPHYLOCOCCUS AUREUS A5177: CC[C@H]1OC(=O)[C@H](C)C(=O)[C@H](C)[C@@H](O[C@@H]2O[C@H](C)C[C@H](N(C)C)[C@H]2O)[C@](C)(OC)C[C@@H](C)C2=NC[C@H](Cc3ccc(I)cc3)N3C(=O)O[C@@]1(C)[C@H]3[C@H]2C
0.1

For STAPHYLOCOCCUS AUREUS A5177, give the measured MIC of the entry CC[C@H]1OC(=O)[C@H](C)C(=O)[C@H](C)[C@@H](O[C@@H]2O[C@H](C)C[C@H](N(C)C)[C@H]2O)[C@](C)(OC)C[C@@H](C)C2=NC3CN(CCOc4ccccc4)CC3N3C(=O)O[C@@]1(C)[C@H]3[C@H]2C (some centres unmarked)
0.39

State MIC on STAPHYLOCOCCUS AUREUS A5177. Entry: CC[C@H]1OC(=O)[C@H](C)C(=O)[C@H](C)[C@@H](O[C@@H]2O[C@H](C)C[C@H](N(C)C)[C@H]2O)[C@](C)(OC)C[C@@H](C)C2=N[C@@H](Cc3ccccc3)CN3C(=O)O[C@@]1(C)[C@H]3[C@H]2C
0.2

Retrieve MIC on STAPHYLOCOCCUS AUREUS A5177; query CC[C@H]1OC(=O)[C@H](C)C(=O)[C@H](C)[C@@H](O[C@@H]2O[C@H](C)C[C@H](N(C)C)[C@H]2O)[C@](C)(OC)C[C@@H](C)C2=N[C@H](COCc3ccc(C(=O)OC)cc3)CN3C(=O)O[C@@]1(C)[C@H]3[C@H]2C
0.2

Please report the measured MIC for CC[C@H]1OC(=O)[C@H](C)C(=O)[C@H](C)[C@@H](O[C@@H]2O[C@H](C)C[C@H](N(C)C)[C@H]2O)[C@](C)(OC)C[C@@H](C)C2=N[C@@H]3CNC[C@@H]3N3C(=O)O[C@@]1(C)[C@H]3[C@H]2C tested on STAPHYLOCOCCUS AUREUS A5177.
0.39

Name the value of MIC reported for CC[C@H]1OC(=O)[C@H](C)C(=O)[C@H](C)[C@@H](O[C@@H]2O[C@H](C)C[C@H](N(C)C)[C@H]2O)[C@](C)(OC)C[C@@H](C)C2=NC3CN(C=O)CC3N3C(=O)O[C@@]1(C)[C@H]3[C@H]2C (some centres unmarked) when tested on STAPHYLOCOCCUS AUREUS A5177.
1.56

Given CC[C@H]1OC(=O)[C@H](C)C(=O)[C@H](C)[C@@H](O[C@@H]2O[C@H](C)C[C@H](N(C)C)[C@H]2O)[C@](C)(OC)C[C@@H](C)C2=NCC(COC(=O)c3cc4ccccc4n3C)N3C(=O)O[C@@]1(C)[C@H]3[C@H]2C (some centres unmarked) , report its MIC on STAPHYLOCOCCUS AUREUS A5177.
0.2

Answer with MIC of CC[C@H]1OC(=O)[C@H](C)C(=O)[C@H](C)[C@@H](O[C@@H]2O[C@H](C)C[C@H](N(C)C)[C@H]2O)[C@](C)(OC)C[C@@H](C)C2=N[C@H](CCOCc3ccccc3)CN3C(=O)O[C@@]1(C)[C@H]3[C@H]2C measured for STAPHYLOCOCCUS AUREUS A5177.
0.2
